Kindly supply the reported IC50 values for the records listed here.
tested on: WiDr; experiment: Tested for inhibitory activity against a multi drug resistant (MDR) strain of human colon carcinoma WiDr using sulforhodamine B assay (it is MRP positive but non-P-glycoprotein).; assay type: functional, cell-based
Numbers only, in nM.

Provide reported IC50 for each item, in the same order as listed.
1. CN(C)CCN1C(=O)c2cccc3c2c(cc2c(N)cccc23)C1=O
2. CN(C)CCN1C(=O)c2cccc3c2c(cc2c(O)cccc23)C1=O
3. CN(C)CCN1C(=O)c2cc(N)cc3cc4c(c(c23)C1=O)CCCC4
4. CN(C)CCN1C(=O)c2c(N)ccc3cc4c(c(c23)C1=O)CCCC4
5. CN(C)CCN1C(=O)c2cccc3c2c(cc2cccc([N+](=O)[O-])c23)C1=O
6. CN(C)CCN1C(=O)c2cccc3c2c(cc2cccnc23)C1=O
7. CN(C)CCN1C(=O)c2cccc3c2c(cc2ncccc23)C1=O
8. CN(C)CCN1C(=O)c2cccc3c2c(cc2c([N+](=O)[O-])cccc23)C1=O

1: 525; 2: 500; 3: 1600; 4: 450; 5: 2400; 6: 370; 7: 260; 8: 175
